# METHOD DESCRIPTION: Tmax in Wistar rat extracellular fluid at 3 mg/kg, sc by HPLC-MS/MS analysis
# Format: ADME, organism-based
# Set-up: dose 3 mg/kg, route subcutaneous
QUANTITY KIND: Tmax (h)
Note: unit h is implicit; provide only the numeric part.

Exercise: Report Tmax, nothing else, for this molecule: `Cc1nc2n(c(=O)c1CCN1CCC(c3noc4cc(F)ccc34)CC1)CCCC2`
Key: 1.25

###

# METHOD DESCRIPTION: Tmax in Wistar rat extracellular fluid at […], sc by HPLC-MS/MS analysis
# Type: ADME, organism-based
# Set-up: dose 1.6 mg/kg, route subcutaneous
QUANTITY KIND: Tmax (h)
Report the value in h with no unit label.

Exercise: Report measured Tmax; entry is CN(C)CCC[C@@]1(c2ccc(F)cc2)OCc2cc(C#N)ccc21 [ESCITALOPRAM]
Key: 2
